# assay procedure: PK in mice after iv injection of liposomal NA112: plasma
# Type: in vivo
# run conditions: mouse, iv, 10 mg/kg, mice iv 10 mg/kg liposomes, 24 hr, read-out: Plasma concentration Mean
property: concentration at 24 hr (ng/mL)
The reply should contain only the number, in ng/mL.

Enquiry: Fill in the blank: the reported concentration at 24 hr of CCC(NC(=O)[C@H](CC(C)C)NC(=O)NCc1ccccc1)C(=O)C(=O)NCc1cc(OC)cc(OC)c1 (mixture of isomers) is ____.
Return: 5.15

----------
# assay procedure: PK in mice after iv injection of liposomal NA112: brain
# Format: in vivo
# run conditions: mouse, iv, 10 mg/kg, mice iv 10 mg/kg liposomes, 16 hr, read-out: Brain concentration Mean
# Method: NA112 was prepared in liposomes at a concentration of 1.5 mg/ml. Mice were injected in the tail vein with 200 μl of NA112 in liposomes (corresponding to a dose of 10 mg/kg) and were sacrificed at the following time-points: 1, 5, 15, 30 min, 1, 2, 4, 8, 16 and 24 h. Blood was collected and plasma rapidly prepared by centrifugation. Brains were also collected. NA112 in plasma and in brain homogenates was assayed with LC/Ms and the sensitivity of the assay was 1 ng/ml. […]
property: concentration at 16 h
Answer as a quantity: numeral, then unit.

Enquiry: What does the record list as concentration at 16 h for CCC(NC(=O)[C@H](CC(C)C)NC(=O)NCc1ccccc1)C(=O)C(=O)NCc1cc(OC)cc(OC)c1 (mixture of isomers) ?
Return: 8.03 ng/mL

----------
# assay procedure: PK in mice after iv injection of liposomal NA112: brain
# Type: in vivo
# run conditions: mouse, iv, 10 mg/kg, mice iv 10 mg/kg liposomes, 0.25 hr, read-out: Brain concentration Mean
property: concentration at 0.25 h (ng/mL)
Give a bare numeral; the unit ng/mL is implied.

Enquiry: Consider the compound CCC(NC(=O)[C@H](CC(C)C)NC(=O)NCc1ccccc1)C(=O)C(=O)NCc1cc(OC)cc(OC)c1 (mixture of isomers) and give its measured concentration at 0.25 h.
Return: 84.4

----------
# assay procedure: PK in mice after iv injection of liposomal NA112: plasma
# Type: in vivo
# run conditions: mouse, iv, 10 mg/kg, mice iv 10 mg/kg liposomes, 16 hr, read-out: Plasma concentration A2
property: concentration at 16 hr (ng/mL)
Unit ng/mL implied. Number only.

Enquiry: # lookup: concentration at 16 hr of CCC(NC(=O)[C@H](CC(C)C)NC(=O)NCc1ccccc1)C(=O)C(=O)NCc1cc(OC)cc(OC)c1 (mixture of isomers) [NA112]
Return: 9.79

----------
# assay procedure: PK in mice after iv injection of liposomal NA112: plasma
# Format: in vivo
# run conditions: mouse, iv, 10 mg/kg, mice iv 10 mg/kg liposomes, 0.5 hr, read-out: Plasma concentration A2
property: concentration at 0.5 hr (ng/mL)
Output spec: scalar in ng/mL, unitless text.

Enquiry: Sample CCC(NC(=O)[C@H](CC(C)C)NC(=O)NCc1ccccc1)C(=O)C(=O)NCc1cc(OC)cc(OC)c1 (mixture of isomers) [NA112] — what was its concentration at 0.5 hr?
Return: 432

----------
# assay procedure: PK in mice after iv injection of liposomal NA112: plasma
# Type: in vivo
# run conditions: mouse, iv, 10 mg/kg, mice iv 10 mg/kg liposomes, 16 hr, read-out: Plasma concentration Mean
property: concentration at 16 hr (ng/mL)
Kindly answer with a numeric value in ng/mL, unit omitted.

Enquiry: Return reported concentration at 16 hr; argument: CCC(NC(=O)[C@H](CC(C)C)NC(=O)NCc1ccccc1)C(=O)C(=O)NCc1cc(OC)cc(OC)c1 (mixture of isomers)
Return: 10.3

----------
# assay procedure: PK in mice after iv injection of liposomal NA112: brain
# Format: in vivo
# run conditions: mouse, iv, 10 mg/kg, mice iv 10 mg/kg liposomes, 4 hr, read-out: Brain concentration Mean
property: concentration at 4 h (ng/mL)
Only the number, expressed in ng/mL, is required.

Enquiry: Can you look up the measured concentration at 4 h of CCC(NC(=O)[C@H](CC(C)C)NC(=O)NCc1ccccc1)C(=O)C(=O)NCc1cc(OC)cc(OC)c1 (mixture of isomers) for me?
Return: 17.6

----------
# assay procedure: PK in mice after iv injection of liposomal NA112: brain
# Assay type: in vivo
# run conditions: mouse, iv, 10 mg/kg, mice iv 10 mg/kg liposomes, 2 hr, read-out: Brain concentration Mean
property: concentration at 2 h (µg/mL)
State the answer as a number, implicitly in µg/mL.

Enquiry: # lookup: concentration at 2 h of CCC(NC(=O)[C@H](CC(C)C)NC(=O)NCc1ccccc1)C(=O)C(=O)NCc1cc(OC)cc(OC)c1 (mixture of isomers)
Return: 0.0284

----------
# assay procedure: PK in mice after iv injection of liposomal NA112: brain
# Format: in vivo
# run conditions: mouse, iv, 10 mg/kg, mice iv 10 mg/kg liposomes, 1 hr, read-out: Brain concentration A2
property: concentration at 1 hr (ng/mL)
The response must be a number in ng/mL with no trailing unit.

Enquiry: If you can, please state the reported concentration at 1 hr value of CCC(NC(=O)[C@H](CC(C)C)NC(=O)NCc1ccccc1)C(=O)C(=O)NCc1cc(OC)cc(OC)c1 (mixture of isomers) [NA112] .
Return: 48.4

----------
# assay procedure: PK in mice after iv injection of liposomal NA112: plasma
# Type: in vivo
# run conditions: mouse, iv, 10 mg/kg, mice iv 10 mg/kg liposomes, 4 hr, read-out: Plasma concentration A1
property: concentration at 4 hr (ng/mL)
Field: numeric (ng/mL). Do not append units.

Enquiry: For the compound CCC(NC(=O)[C@H](CC(C)C)NC(=O)NCc1ccccc1)C(=O)C(=O)NCc1cc(OC)cc(OC)c1 (mixture of isomers) [NA112] , what concentration at 4 hr is on record?
Return: 34.6

----------
# assay procedure: PK in mice after iv injection of liposomal NA112: plasma
# Assay type: in vivo
# run conditions: mouse, iv, 10 mg/kg, mice iv 10 mg/kg liposomes, 0.0167 hr, read-out: Plasma concentration Mean
property: concentration at 0.0167 hr (µg/mL)
// note: answer is a bare numeric in µg/mL

Enquiry: Please give the measured concentration at 0.0167 hr for this compound: CCC(NC(=O)[C@H](CC(C)C)NC(=O)NCc1ccccc1)C(=O)C(=O)NCc1cc(OC)cc(OC)c1 (mixture of isomers)
Return: 54.4

----------
# assay procedure: PK in mice after iv injection of liposomal NA112: brain
# Assay type: in vivo
# run conditions: mouse, iv, 10 mg/kg, mice iv 10 mg/kg liposomes, 2 hr, read-out: Brain concentration A1
property: concentration at 2 h
Number first, unit second: that is the form wanted.

Enquiry: Looking for the measured concentration at 2 h of CCC(NC(=O)[C@H](CC(C)C)NC(=O)NCc1ccccc1)C(=O)C(=O)NCc1cc(OC)cc(OC)c1 (mixture of isomers) , can you help?
Return: 25.9 ng/mL

----------
# assay procedure: PK in mice after iv injection of liposomal NA112: brain
# Assay type: in vivo
# run conditions: mouse, iv, 10 mg/kg, mice iv 10 mg/kg liposomes, 2 hr, read-out: Brain concentration A2
# Method: NA112 was prepared in liposomes at a concentration of 1.5 mg/ml. Mice were injected in the tail vein with 200 μl of NA112 in liposomes (corresponding to a dose of 10 mg/kg) and were sacrificed at the following time-points: 1, 5, 15, 30 min, 1, 2, 4, 8, 16 and 24 h. Blood was collected and plasma rapidly prepared by centrifugation. Brains were also collected. NA112 in plasma and in brain homogenates was assayed with LC/Ms and the sensitivity of the assay was 1 ng/ml. […]
property: concentration at 2 h (ng/mL)
Give just the number in ng/mL; leave the unit off.

Enquiry: Which value of concentration at 2 h has been reported for CCC(NC(=O)[C@H](CC(C)C)NC(=O)NCc1ccccc1)C(=O)C(=O)NCc1cc(OC)cc(OC)c1 (mixture of isomers) [NA112] in the records?
Return: 30.9

----------
# assay procedure: PK in mice after iv injection of liposomal NA112: plasma
# Format: in vivo
# run conditions: mouse, iv, 10 mg/kg, mice iv 10 mg/kg liposomes, 8 hr, read-out: Plasma concentration Mean
property: concentration at 8 hr (ng/mL)
Give a bare numeral; the unit ng/mL is implied.

Enquiry: Give the measured concentration at 8 hr of CCC(NC(=O)[C@H](CC(C)C)NC(=O)NCc1ccccc1)C(=O)C(=O)NCc1cc(OC)cc(OC)c1 (mixture of isomers) .
Return: 19

----------
# assay procedure: PK in mice after iv injection of liposomal NA112: plasma
# Assay type: in vivo
# run conditions: mouse, iv, 10 mg/kg, mice iv 10 mg/kg liposomes, 0.25 hr, read-out: Plasma concentration Mean
property: concentration at 0.25 hr (ng/mL)
Respond numerically; units are ng/mL and should not be typed.

Enquiry: Please report the recorded concentration at 0.25 hr for CCC(NC(=O)[C@H](CC(C)C)NC(=O)NCc1ccccc1)C(=O)C(=O)NCc1cc(OC)cc(OC)c1 (mixture of isomers) [NA112] .
Return: 1530

Sourced from patent US12606520B2
